Record form. Attribute: EC50. Fill in for each entry.
# System: human carcinoembryonic antigen (hCEA) protein, purified (human, UniProt P06731)
# Sequence (P06731 35-685): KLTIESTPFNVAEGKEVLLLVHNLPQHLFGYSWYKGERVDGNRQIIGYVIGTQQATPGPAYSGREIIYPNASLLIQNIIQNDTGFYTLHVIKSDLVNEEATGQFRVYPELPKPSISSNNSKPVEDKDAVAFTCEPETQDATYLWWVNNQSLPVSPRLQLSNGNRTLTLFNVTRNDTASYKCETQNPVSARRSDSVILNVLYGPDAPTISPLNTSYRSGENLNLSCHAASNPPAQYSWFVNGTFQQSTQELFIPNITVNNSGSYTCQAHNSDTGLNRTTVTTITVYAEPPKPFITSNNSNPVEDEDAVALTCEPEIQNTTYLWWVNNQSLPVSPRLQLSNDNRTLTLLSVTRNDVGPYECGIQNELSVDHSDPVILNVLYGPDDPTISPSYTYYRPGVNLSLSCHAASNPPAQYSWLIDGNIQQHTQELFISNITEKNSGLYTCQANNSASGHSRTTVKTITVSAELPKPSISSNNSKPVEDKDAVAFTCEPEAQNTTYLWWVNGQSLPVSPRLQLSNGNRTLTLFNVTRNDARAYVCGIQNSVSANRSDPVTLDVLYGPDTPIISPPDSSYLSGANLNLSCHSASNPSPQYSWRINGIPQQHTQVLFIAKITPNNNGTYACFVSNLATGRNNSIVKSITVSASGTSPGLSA
# Assay comment: ELISA

Query: Supply recorded EC50 for anti-hCEA VHH JJB-D1, thioredoxin fusion protein (VHH) VHH: QVQLVESGGLVQAGGSLRPSCAASGSIFLQNAMGWYRQVPGKQRELVAAITSVDSTNYADSVKGRFTISRDNAKNTVYLQMNSLKPEDTAVYYCNAPWNSDYHWGKGTLVTVSS here.
Response: ~1000 pM

Query: Supply recorded EC50 for anti-hCEA VHH JJB-A3, thioredoxin fusion protein (VHH) VHH: QVQLVETGGGLVQPGGSLRLSCAASGRISDINAMGWYRQAPGKQRELVAAITSVGSNYVDSVKGRFTISKDNAKNTVYLQMYSLNPEDTAVYYCNTQCGTWLVCDGRDQWGKGTLVTVSS here.
Response: ~150 pM

Query: Supply recorded EC50 for anti-hCEA VHH JJB-B5, thioredoxin fusion protein (VHH) VHH: QVQLVETGGGLVQPGGSLRPSCTASGSIFSIYAMGWYRQASGKQRELVALITRDEVFNYADSVKGRFTISRDNAKDTVYLQMNSLKPEDTAVYYCWVETVNDHYNSGVEDYWGQGTQVTVSS here.
Response: ~50000 pM

Query: Supply recorded EC50 for anti-hCEA VHH JJB-B2, thioredoxin fusion protein (VHH) VHH: QVQLVETGGGLVQPGGSLRLSCAASESIFSTYAMGWYRQAPGKQRELVAAITTNDIANYADSVKGRFTISRDNAKNTVYLQMNSLNPEDTAVYYCNAIFPPYNYWGQGTQVTVSS here.
Response: ~200 pM
